assay: Brain tissue binding assay (dialysis); format: in vitro ADME; settings: brain homogenate 20 mg/mL, 2 µM compound, dialysis 4.5 hours, 37 °C
Threshold check on Brain Tissue Binding: at or above 60 % bound gives Fulfilled, strictly below gives Not fulfilled.

Cc1sc2c(c1C)C(c1ccc(Cl)cc1)=N[C@@H](CC(=O)OC1CCCC1)c1nnc(C)n1-2    Fulfilled
CCCCOC(=O)C[C@@H]1N=C(c2ccc(Cl)cc2)c2c(sc(C)c2C)-n2c(C)nnc21    Fulfilled
Cc1sc2c(c1C)C(c1ccc(Cl)cc1)=N[C@@H](CC(=O)OC(C)(C)C)c1nnc(C)n1-2 [(+)-JQ1, reference compound]    Fulfilled

Shifting focus to the compound that follows.
Given "Cc1sc2c(c1C)C(c1ccc(Cl)cc1)=N[C@@H](CC(=O)N1CCCC1)c1nnc(C)n1-2" , state whether its Brain Tissue Binding is at least 60 % bound.
Fulfilled

----------
test: Kinetic solubility; assay type: physicochemical; conditions: aqueous buffer, kinetic from dmso stock, PBS pH 7.4, 37 °C, 100 µM nominal
measurement name: solubility kinetic at 90 min

Examples from the recorded data:
Cc1sc2c(c1C)C(c1ccc(Cl)cc1)=N[C@@H](CC(=O)OC1CC1)c1nnc(C)n1-2    80 µM
Cc1sc2c(c1C)C(c1ccc(Cl)cc1)=N[C@@H](CC(=O)NC1CCCC1)c1nnc(C)n1-2    > 100 µM
Cc1sc2c(c1C)C(c1ccc(Cl)cc1)=NC(CC(=O)NC(C)C(=O)OC(C)C)c1nnc(C)n1-2 (stereo not shown)    > 100 µM
Cc1sc2c(c1C)C(c1ccc(Cl)cc1)=N[C@@H](CC(=O)OC1CCCC1)c1nnc(C)n1-2    57.5 µM
CCCCOC(=O)C[C@@H]1N=C(c2ccc(Cl)cc2)c2c(sc(C)c2C)-n2c(C)nnc21    59.3 µM
Cc1sc2c(c1C)C(c1ccc(Cl)cc1)=N[C@@H](CC(=O)N1CCCC1)c1nnc(C)n1-2    > 100 µM

Shifting focus to the compound that follows.
Item Cc1sc2c(c1C)C(c1ccc(Cl)cc1)=N[C@@H](CC(=O)OC(C)(C)C)c1nnc(C)n1-2 [(+)-JQ1, reference compound] has what recorded solubility kinetic at 90 min?
86.5 µM

----------
assay: Plasma binding assay (dialysis); assay type: in vitro ADME; conditions: dialysis 4.5 hours, 37 °C
# Plasma Binding values compiled below
Report only the number, with the unit % bound understood.

Examples from the recorded data:
Cc1sc2c(c1C)C(c1ccc(Cl)cc1)=N[C@@H](CC(=O)OC1CCCC1)c1nnc(C)n1-2    99
Cc1sc2c(c1C)C(c1ccc(Cl)cc1)=N[C@@H](CC(=O)OC(C)(C)C)c1nnc(C)n1-2 [(+)-JQ1, reference compound]    85
Cc1sc2c(c1C)C(c1ccc(Cl)cc1)=N[C@@H](CC(=O)OC1CC1)c1nnc(C)n1-2    88
Cc1sc2c(c1C)C(c1ccc(Cl)cc1)=N[C@@H](CC(=O)OC1CCC1)c1nnc(C)n1-2    86
Cc1sc2c(c1C)C(c1ccc(Cl)cc1)=NC(CC(=O)NC(C)C(=O)OC(C)C)c1nnc(C)n1-2 (centres unmarked)    94

Shifting focus to the compound that follows.
Item "Cc1sc2c(c1C)C(c1ccc(Cl)cc1)=N[C@@H](CC(=O)NCC(=O)OC(C)C)c1nnc(C)n1-2" has what recorded Plasma Binding?
91

----------
# Brain Tissue Binding values compiled below
experiment: Brain tissue binding assay (dialysis); type: in vitro ADME; details: brain homogenate 20 mg/mL, 2 µM compound, dialysis 4.5 hours, 37 °C
Report only the number, with the unit % bound understood.

Examples from the recorded data:
Cc1sc2c(c1C)C(c1ccc(Cl)cc1)=N[C@@H](CC(=O)OC1CC1)c1nnc(C)n1-2    75
Cc1sc2c(c1C)C(c1ccc(Cl)cc1)=N[C@@H](CC(=O)OC1CCC1)c1nnc(C)n1-2    88
Cc1sc2c(c1C)C(c1ccc(Cl)cc1)=N[C@@H](CC(=O)NCC(=O)OC(C)C)c1nnc(C)n1-2    67

Shifting focus to the compound that follows.
Item "Cc1sc2c(c1C)C(c1ccc(Cl)cc1)=N[C@@H](CC(=O)NO)c1nnc(C)n1-2" has what recorded Brain Tissue Binding?
59

----------
# EC50 values compiled below
tested on: sCLU secreted from human U-87 MG glioblastoma cells; assay: Human sCLU AlphaLISA on supernatant of U-87 MG cells (HTS, re-test, dose response); format: cell-based; settings: Homo sapiens; U-87 MG cells, 30 h, AlphaLISA of supernatant; read-out: EC50 for sCLU increase
Report only the number, with the unit nM understood.

Cc1sc2c(c1C)C(c1ccc(Cl)cc1)=N[C@@H](CC(=O)OC1CC1)c1nnc(C)n1-2    223
Cc1sc2c(c1C)C(c1ccc(Cl)cc1)=N[C@@H](CC(=O)NCC(=O)OC(C)C)c1nnc(C)n1-2    676
Cc1sc2c(c1C)C(c1ccc(Cl)cc1)=NC(CC(=O)NC(C)C(=O)OC(C)C)c1nnc(C)n1-2 (centres unmarked)    2340

Item "CCCCOC(=O)C[C@@H]1N=C(c2ccc(Cl)cc2)c2c(sc(C)c2C)-n2c(C)nnc21" has what recorded EC50?
446

Same again, this time with "Cc1sc2c(c1C)C(c1ccc(Cl)cc1)=N[C@@H](CC(=O)NC1CCCC1)c1nnc(C)n1-2"
977

----------
test system: sCLU secreted from human U-87 MG glioblastoma cells; experiment: Human sCLU AlphaLISA on supernatant of U-87 MG cells (HTS, re-test, dose response); type: cell-based; conditions: Homo sapiens; U-87 MG cells, dose response; text and figures; read-out: sCLU EC50
measurement name: pEC50
// pEC50 is dimensionless: -log10 of concentration (M)

COc1cc2c(cc1-c1c(C)noc1C)ncc1[nH]c(=O)n(C(C)c3ccccn3)c12 (centres unmarked)    6.21

Shifting focus to the compound that follows.
Item "O=C(/C=C/c1cccc(S(=O)(=O)Nc2ccccc2)c1)NO" has what recorded pEC50?
5.95

----------
target: BRD4 (Homo sapiens, UniProt O60885); experiment: BRD4 inhibition assay; format: biochemical
# pIC50 values compiled below
// pIC50 is dimensionless: -log10 of concentration (M)

Examples from the recorded data:
Cc1sc2c(c1C)C(c1ccc(Cl)cc1)=N[C@@H](CC(=O)OC1CCCC1)c1nnc(C)n1-2 [DDL-351]    7.57
Cc1sc2c(c1C)C(c1ccc(Cl)cc1)=N[C@@H](CC(=O)OC1CC1)c1nnc(C)n1-2 [DDL-357]    7.70
Cc1sc2c(c1C)C(c1ccc(Cl)cc1)=N[C@@H](CC(=O)OC1COC1)c1nnc(C)n1-2 [DDL-356]    7.64
Cc1sc2c(c1C)C(c1ccc(Cl)cc1)=N[C@@H](CC(=O)OC1CCC1)c1nnc(C)n1-2 [DDL-355]    7.72

Item CCCCOC(=O)C[C@@H]1N=C(c2ccc(Cl)cc2)c2c(sc(C)c2C)-n2c(C)nnc21 [DDL-358] has what recorded pIC50?
7.55

----------
# half-life at 1 µM values compiled below
test: Liver microsome stability assay; format: in vitro ADME; settings: pH 7.4; human liver microsomes 0.5 mg/mL, NADPH, 37 °C, up to 120 min; read-out: Microsomal Stability t1/2
Give your result as the value with the unit written after it.

Examples from the recorded data:
Cc1sc2c(c1C)C(c1ccc(Cl)cc1)=N[C@@H](CC(=O)OC1COC1)c1nnc(C)n1-2 [DDL-356]    75 min
Cc1sc2c(c1C)C(c1ccc(Cl)cc1)=N[C@@H](CC(=O)OC1CCCC1)c1nnc(C)n1-2 [DDL-351]    3 min
Cc1sc2c(c1C)C(c1ccc(Cl)cc1)=N[C@@H](CC(=O)OC(C)(C)C)c1nnc(C)n1-2 [(+)-JQ1, reference compound]    27 min

Shifting focus to the compound that follows.
Item Cc1sc2c(c1C)C(c1ccc(Cl)cc1)=N[C@@H](CC(=O)NC1CCCC1)c1nnc(C)n1-2 [DDL-353] has what recorded half-life at 1 µM?
8 min

----------
assay: In-vivo pharmacokinetics, brain levels after oral administration; conditions: mouse; mice, oral 30 mg/kg, 1 h; from total brain level and brain tissue binding 75.3%; read-out: unbound brain concentration
measurement name: concentration at 1 h

Item "Cc1sc2c(c1C)C(c1ccc(Cl)cc1)=N[C@@H](CC(=O)OC1CC1)c1nnc(C)n1-2" has what recorded concentration at 1 h?
457 nM

----------
biological target: BRD4 (Homo sapiens, UniProt O60885); assay: BRD4 inhibition assay; format: biochemical; conditions: read-out: BRD4 IC50
# IC50 values compiled below
Report only the number, with the unit nM understood.

Examples from the recorded data:
Cc1sc2c(c1C)C(c1ccc(Cl)cc1)=N[C@@H](CC(=O)NC1CCCC1)c1nnc(C)n1-2 [DDL-353]    63
Cc1sc2c(c1C)C(c1ccc(Cl)cc1)=N[C@@H](CC(=O)NO)c1nnc(C)n1-2 [DDL-360]    70
Cc1sc2c(c1C)C(c1ccc(Cl)cc1)=NC(CC(=O)NC(C)C(=O)OC(C)C)c1nnc(C)n1-2 (centres unmarked) [DDL-359]    353
Cc1sc2c(c1C)C(c1ccc(Cl)cc1)=N[C@@H](CC(=O)N1CCCC1)c1nnc(C)n1-2 [DDL-352]    105

Shifting focus to the compound that follows.
Item Cc1sc2c(c1C)C(c1ccc(Cl)cc1)=N[C@@H](CC(=O)NCC(=O)OC(C)C)c1nnc(C)n1-2 [DDL-354] has what recorded IC50?
48
